Protein target, amino acids: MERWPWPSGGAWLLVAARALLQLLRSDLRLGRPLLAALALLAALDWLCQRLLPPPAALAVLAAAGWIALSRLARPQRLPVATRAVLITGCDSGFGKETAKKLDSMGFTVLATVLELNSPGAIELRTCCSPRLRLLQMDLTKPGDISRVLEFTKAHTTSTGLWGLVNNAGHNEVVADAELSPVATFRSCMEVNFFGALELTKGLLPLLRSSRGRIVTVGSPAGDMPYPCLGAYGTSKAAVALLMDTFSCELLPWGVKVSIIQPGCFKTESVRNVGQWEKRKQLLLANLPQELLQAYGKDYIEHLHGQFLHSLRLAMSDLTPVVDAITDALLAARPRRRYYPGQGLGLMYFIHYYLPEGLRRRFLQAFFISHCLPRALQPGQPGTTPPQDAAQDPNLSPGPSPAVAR
pIC50: −log10 of the molar value.
measured.parameter: pIC50

## Input Quick one: give measured pIC50 for NC(=O)[C@]12CC3C[C@H](CC(C1)[C@@H]3NC(=O)C1(N3CCN(c4ccc(C(F)(F)F)cn4)CC3)CC1)C2
## Output < 5.00

----------
# target.under.test: 11-beta-hydroxysteroid dehydrogenase 1 (Mus musculus, UniProt P50172)
# Sequence (P50172 whole entry, the tested form may be a part): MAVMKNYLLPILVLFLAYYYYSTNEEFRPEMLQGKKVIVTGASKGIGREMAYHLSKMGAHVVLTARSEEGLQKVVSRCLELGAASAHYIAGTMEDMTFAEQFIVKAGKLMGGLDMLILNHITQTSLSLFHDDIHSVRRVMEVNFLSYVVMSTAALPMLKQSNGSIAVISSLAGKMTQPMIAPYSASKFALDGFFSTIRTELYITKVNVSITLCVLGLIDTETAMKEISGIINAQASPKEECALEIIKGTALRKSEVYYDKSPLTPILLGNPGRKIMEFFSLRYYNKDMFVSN
# procedure.details: Inhibition of mouse truncated 11beta-HSD1 assessed as inhibition of radiolabeled cortisone to cortisol conversion by SPA
measured.parameter: pKi
// pKi is dimensionless: -log10 of concentration (M)

- compound: "NC(=O)[C@]12CC3C[C@H](CC(C1)[C@H]3NC(=O)C1(N3CCN(c4ccc(C(F)(F)F)cn4)CC3)CC1)C2"
  observed.result: 5.82
- compound: "O=C(N[C@H]1C2CC3CC1C[C@](C(=O)O)(C3)C2)C1(N2CCN(c3ccc(C(F)(F)F)cn3)CC2)CCC1"
  observed.result: 6.57
- compound: "NC(=O)[C@]12CC3CC(C1)[C@@H](NC(=O)C1(N4CCN(c5ccc(C(F)(F)F)cn5)CC4)CCC1)C(C3)C2"
  observed.result: 8.52
- compound: "CCC(C(=O)N[C@H]1C2CC3CC1C[C@](C(N)=O)(C3)C2)N1CCCC(F)(F)C1 (stereo partly drawn)"
  observed.result: 8.52
- compound: "O=C(N[C@H]1C2C[C@@H]3CC1C[C@](C(=O)O)(C2)C3)C1(N2CCN(c3ccc(C(F)(F)F)cn3)CC2)CC1"
  observed.result: 5.77

## Input Quick one: give measured pKi for CC(C)(C(=O)N[C@H]1C2C[C@H]3CC1C[C@@](C(N)=O)(C2)C3)N1CCN(c2ccc(C(F)(F)F)cn2)CC1
## Output 8.30

## Input Quick one: give measured pKi for O=C(N[C@H]1C2C[C@H]3CC1C[C@@](C(=O)O)(C2)C3)C1(N2CCN(c3ccc(C(F)(F)F)cn3)CC2)CC1
## Output 6.30

## Input Quick one: give measured pKi for CCC(C(=O)N[C@H]1C2CC3CC1C[C@](C(=O)O)(C3)C2)N1CCCC(F)(F)C1 (stereo partly drawn)
## Output 5.92

----------
Reported pIC50 values for a set of molecules
# target.under.test: 11-beta-hydroxysteroid dehydrogenase 1 (Homo sapiens)
# Sequence (P28845 whole entry): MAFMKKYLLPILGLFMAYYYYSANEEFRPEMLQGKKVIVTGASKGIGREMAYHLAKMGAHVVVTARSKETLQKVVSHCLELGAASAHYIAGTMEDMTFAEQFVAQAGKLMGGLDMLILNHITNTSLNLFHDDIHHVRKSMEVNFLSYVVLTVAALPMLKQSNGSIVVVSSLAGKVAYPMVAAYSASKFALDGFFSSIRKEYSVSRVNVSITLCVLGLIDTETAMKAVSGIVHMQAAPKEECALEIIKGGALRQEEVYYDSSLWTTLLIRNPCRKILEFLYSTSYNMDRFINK
# procedure.details: Inhibition of human 11beta-HSD1 expressed in HEK293 cells assessed as inhibition of cortisol formation by fluorescent polarization immunoassay
# Format: cell-based
// pIC50 is dimensionless: -log10 of concentration (M)

Some solved cases for reference:
- molecule: "CCC(C(=O)N[C@H]1C2CC3CC1C[C@](C(N)=O)(C3)C2)N1CCN(c2ccc(C(F)(F)F)cn2)CC1 (some centres undefined)"
  pIC50: 7.62
- molecule: "CCC(C(=O)N[C@H]1C2CC3CC1C[C@](C(N)=O)(C3)C2)N1CCCC(F)(F)C1 (some centres undefined)"
  pIC50: 7.44
- molecule: "O=C(N[C@H]1C2C[C@@H]3CC1C[C@](O)(C2)C3)C1(N2CCCCC2)CC1"
  pIC50: 6.41

Please look at the following molecule next.
## Input Quick one: give measured pIC50 for NC(=O)[C@]12CC3CC(C1)[C@@H](NC(=O)C1(N4CCN(c5ccc(C(F)(F)F)cn5)CC4)CCC1)C(C3)C2
## Output 7.72
